# Assay summary: protein stability index of a GFP-peptide fusion (GPS, HEK-293T) (PSI 1-6); higher = more stable;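 note: 24-mer peptide tiles fused after GFP, lentivirally expressed, FACS-sorted into six equal bins by GFP/DsRed ratio, decoded by Illumina sequencing, PSI is the read-weighted mean bin number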
# Run conditions: treatment: MLN4924 1 uM, 8 h; c terminus: a fixed tail appended
Decide using protein stability index: a value greater than or equal to 3 is condition met, a smaller one is condition not met.

Hi, just wondering whether PPDTVSRTGLEKAAAGAVGLERRD [SPDEF] shows protein stability index of 3 or higher.
condition met

Decide: is the reported value of protein stability index for FLMDLPSAGRSMPEASDQEEHLSP [RNF180] equal to or greater than 3?
condition met

Identify whether the reported protein stability index of the following sequence is 3 or greater: LASRNTLFNLSNFLDKSGSHGYDM [SNAP91]
condition not met

Could you verify whether the entry ARLLQEGGGGVAAVVVLDQGSRHW [DUSP5] shows protein stability index of no less than 3?
condition not met

Answer whether protein stability index of IKECLSKGTFSDVTFKLDDGAISA [RHOBTB1] is greater than or equal to 3.
condition met
